B1: C22orf15 (parent)
chain: ITQSWQVSVRVQPRGRAHLLPNPY

Variants of: B1
Assay: protein stability index of a GFP-peptide fusion (GPS, HEK-293T) (PSI 1-6); higher = more stable;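 note: lentivirally expressed fusions sorted by FACS into six bins by GFP to DsRed ratio, PSI derived from sequencing read proportions per bin multiplied by bin number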
Conditions: c terminus: a fixed tail appended
measured parameter: protein stability index
Respond with the number and no other words.

Answered examples (5):
V11E
2.65
Q3R
1.1
Y24D
1.75
A17G
3.81
Q3F
2.14

QUERY: Record request: protein stability index value, item `P21C`
RESULT: 3.18

QUERY: For `L20T` then?
RESULT: 3.22

QUERY: For `G15D` then?
RESULT: 1.94

QUERY: For `V7D` then?
RESULT: 2.42

QUERY: For `V7H` then?
RESULT: 2.68

QUERY: For `R14P` then?
RESULT: 1.68
